Listed here are compounds together with their documented DC50.
target: IRAK4 (Homo sapiens); construct: Degradation of IRAK4 in OCI-LY10 was quantitatively measured using Meso Scale Discovery technology; endogenous in cells; host or cells: OCI-LY10; assay: IRAK4 MSD Degradation in OCI-LY10; type: cell-based; conditions: OCI-LY10 cells, 24 hrs incubation, MSD; read-out: IRAK4 degradation in OCI-LY10 at 24 hrs: DC50

- compound: "CN(C[C@H]1CC[C@H](n2cc3cc(NC(=O)c4cccc(C(F)(F)F)n4)c(S(C)(=N)=O)cc3n2)CC1)C1CCN(c2cccc3c2n(C)c(=O)n3C2CCC(=O)NC2=O)CC1(F)F (stereo partly drawn) [I-480]"
  assay-system: "IRAK4 (Homo sapiens)"
  DC50: "> 0.2 µM"
- compound: "Cn1c(=O)n(C2CCC(=O)NC2=O)c2cccc(N3CCC(O[C@H]4CC[C@H](n5cc6cc(NC(=O)c7cccc(C(F)(F)F)n7)ccc6n5)CC4)CC3)c21 (stereo partly drawn) [I-792]"
  assay-system: "IRAK4 (Homo sapiens)"
  DC50: "> 0.2 µM"
- compound: "Cn1c(=O)n(C2CCC(=O)NC2=O)c2cccc(C#CCN3CCN(C[C@H]4CC[C@H](n5cc(NC(=O)c6cnn7ccc(N8C[C@H]9C[C@@H]8CO9)nc67)c(C(C)(C)O)n5)CC4)CC3)c21 (stereo partly drawn) [I-279]"
  assay-system: "IRAK4 (Homo sapiens)"
  DC50: "> 0.2 µM"

* * *

Biological target: IRAK4 (Homo sapiens, UniProt Q9NWZ3)
Construct: Degradation of IRAK4 in OCI-LY10 was quantitatively measured using Meso Scale Discovery technology; endogenous in cells; host or cells: OCI-LY10
Experiment: IRAK4 MSD Degradation in OCI-LY10
Assay type: cell-based
Conditions: OCI-LY10 cells, 4 hrs incubation, MSD; read-out: IRAK4 degradation in OCI-LY10 at 4 hrs: DC50
Procedure: Degradation of IRAK4 in OCI-LY10 was quantitatively measured using Meso Scale Discovery technology. […] Compounds were then added to the assay plates with a final top concentration of 1 to 10 μM in a 1:3 dilution series with total of 8 doses. […] The assay plates were then incubated at room temperature for 1 hour, washed 3 times with 150 μL/well TBST buffer, and 150 μL/well MSD reading buffer (Meso Scale Discovery catalog number R92TC-2) was added. […]

- compound: "CN(C[C@H]1CC[C@H](n2cc(NC(=O)c3cnn4ccc(N5CC(C)(C)C5)nc34)c(C(F)F)n2)CC1)C1CCN(c2cccc3c2n(C)c(=O)n3C2CCC(=O)NC2=O)CC1(F)F (some centres unmarked)"
  assay-system: "IRAK4 (Homo sapiens, UniProt Q9NWZ3)"
  DC50: "> 200 nM"
- compound: "COc1cc2nn([C@H]3CC[C@H](CN4CCC5(CC4)CCN(c4cccc6c(N7CCC(=O)NC7=O)cccc46)CC5)CC3)cc2cc1NC(=O)c1cncc(C#N)c1"
  assay-system: "IRAK4 (Homo sapiens, UniProt Q9NWZ3)"
  DC50: "10 to 100 nM"
- compound: "Cn1c(=O)n(C2CCC(=O)NC2=O)c2cccc(OC3CCN([C@H]4CC[C@H](n5cc6cc(NC(=O)c7cccc(C(F)(F)F)n7)ccc6n5)CC4)CC3(F)F)c21 (some centres unmarked)"
  assay-system: "IRAK4 (Homo sapiens, UniProt Q9NWZ3)"
  DC50: "> 200 nM"
- compound: "COc1nc([C@H]2CC[C@H](CN3CCC(OCC#Cc4cccc5c4n(C)c(=O)n5C4CCC(=O)NC4=O)CC3)CC2)ccc1NC(=O)c1cnn2ccc(N3C[C@H]4C[C@@H]3CO4)nc12 (some centres unmarked)"
  assay-system: "IRAK4 (Homo sapiens, UniProt Q9NWZ3)"
  DC50: "> 200 nM"
- compound: "Cn1c(=O)n(C2CCC(=O)NC2=O)c2cccc(C[C@H]3CN(Cc4ccc(-n5cc(NC(=O)c6cnn7ccc(N8C[C@H]9C[C@@H]8CO9)nc67)c(C(F)F)n5)cc4)CCO3)c21 (some centres unmarked)"
  assay-system: "IRAK4 (Homo sapiens, UniProt Q9NWZ3)"
  DC50: "> 200 nM"

* * *

Listed here are compounds together with their documented DC50.
Molecular target: IRAK4 (Homo sapiens)
Construct: Degradation of IRAK4 in OCI-LY10 was quantitatively measured using Meso Scale Discovery technology; endogenous in cells; host or cells: OCI-LY10
Sequence (Q9NWZ3 1-460): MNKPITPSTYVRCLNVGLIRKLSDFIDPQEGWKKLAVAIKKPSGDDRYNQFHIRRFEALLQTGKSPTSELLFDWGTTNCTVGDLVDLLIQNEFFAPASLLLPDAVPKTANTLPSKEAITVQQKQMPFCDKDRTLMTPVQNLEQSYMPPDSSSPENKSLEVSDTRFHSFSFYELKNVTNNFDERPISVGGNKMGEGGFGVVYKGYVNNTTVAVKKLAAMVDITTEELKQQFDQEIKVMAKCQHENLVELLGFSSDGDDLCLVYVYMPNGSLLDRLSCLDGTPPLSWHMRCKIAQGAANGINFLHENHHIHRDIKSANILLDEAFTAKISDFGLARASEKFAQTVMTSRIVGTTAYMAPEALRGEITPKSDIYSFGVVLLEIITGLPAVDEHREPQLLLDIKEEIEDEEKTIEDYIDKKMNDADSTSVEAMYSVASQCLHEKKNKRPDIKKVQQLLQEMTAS
Assay: IRAK4 MSD Degradation in OCI-LY10
Assay type: cell-based
Conditions: OCI-LY10 cells, 4 hrs incubation, MSD; read-out: IRAK4 degradation in OCI-LY10 at 4 hrs: DC50
value-type: DC50

- compound: "COc1cc2nn([C@H]3CC[C@H](CN4CCC5(CC4)CCN(c4c(C)ccc6c4n(C)c(=O)n6C4CCC(=O)NC4=O)CC5)CC3)cc2cc1NC(=O)c1cncc(C#N)c1 (some centres unmarked) [I-84]"
  value-type: "DC50"
  val: "> 200 nM"
- compound: "Cn1c(=O)n(C2CCC(=O)NC2=O)c2cccc(C#CCN3CCN(Cc4ccc(-n5cc(NC(=O)c6cnn7ccc(N8C[C@H]9C[C@@H]8CO9)nc67)c(C(F)F)n5)cc4)CC3)c21 (some centres unmarked) [I-369]"
  value-type: "DC50"
  val: "< 10 nM"
- compound: "Cn1c(=O)n(C2CCC(=O)NC2=O)c2cccc(N3CCC(OC[C@H]4CC[C@H](n5cc(NC(=O)c6cnn7cccnc67)c(C(F)F)n5)CC4)CC3)c21 (some centres unmarked) [I-786]"
  value-type: "DC50"
  val: "> 200 nM"
- compound: "Cn1c(=O)n(C2CCC(=O)NC2=O)c2cccc(N3CC(F)(F)C34CN(C[C@H]3CC[C@H](n5cc6cc(NC(=O)c7cccc(C(F)(F)F)n7)c(C#N)cc6n5)CC3)C4)c21 (some centres unmarked) [I-564]"
  value-type: "DC50"
  val: "> 200 nM"
- compound: "Cn1c(=O)n(C2CCC(=O)NC2=O)c2cccc(C#CCN3CCN(C[C@H]4CC[C@H](n5cc(NC(=O)c6cnn7ccc(N8C[C@H]9C[C@@H]8CO9)nc67)c(F)n5)CC4)CC3)c21 (some centres unmarked) [I-281]"
  value-type: "DC50"
  val: "> 200 nM"

* * *

Listed here are molecules together with their documented DC50.
Biological target: IRAK4 (Homo sapiens)
Construct: Degradation of IRAK4 in OCI-LY10 was quantitatively measured using Meso Scale Discovery technology; endogenous in cells; host or cells: OCI-LY10
Assay: IRAK4 MSD Degradation in OCI-LY10
Assay type: cell-based
Details: OCI-LY10 cells, 4 hrs incubation, MSD; read-out: IRAK4 degradation in OCI-LY10 at 4 hrs: DC50
Protocol: Degradation of IRAK4 in OCI-LY10 was quantitatively measured using Meso Scale Discovery technology. […] Compounds were then added to the assay plates with a final top concentration of 1 to 10 μM in a 1:3 dilution series with total of 8 doses. […] The assay plates were then incubated at room temperature for 1 hour, washed 3 times with 150 μL/well TBST buffer, and 150 μL/well MSD reading buffer (Meso Scale Discovery catalog number R92TC-2) was added. […]

- molecule: "Cn1c(=O)n(C2CCC(=O)NC2=O)c2cccc(C3CCN(C4CCN(C5CCC(n6cc(NC(=O)c7cnn8ccc(N9C[C@H]%10C[C@@H]9CO%10)nc78)c(C(F)F)n6)CC5)CC4)CC3)c21 (stereo partly drawn) [I-423]"
  assay-system: "IRAK4 (Homo sapiens)"
  DC50: "> 200 nM"
- molecule: "CN(C[C@H]1CC[C@H](n2cc(NC(=O)c3cnn4ccc(N5CCOCC5)nc34)c(C(F)F)n2)CC1)C1CCN(c2cccc3c2n(C)c(=O)n3C2CCC(=O)NC2=O)CC1(F)F (stereo partly drawn) [I-522]"
  assay-system: "IRAK4 (Homo sapiens)"
  DC50: "> 200 nM"
- molecule: "O=C1CCC(c2cncc3c(C#CCOC4CCN(C[C@H]5CC[C@H](n6cc(NC(=O)c7cnn8ccc(N9C[C@H]%10C[C@@H]9CO%10)nc78)c(C(F)F)n6)CC5)CC4)cccc23)C(=O)N1 (stereo partly drawn) [I-249]"
  assay-system: "IRAK4 (Homo sapiens)"
  DC50: "> 200 nM"

Data origin, for the record: patent US12091411B2
